# Kd values compiled below
target: HLA-B*40:02; assay: IEDB peptide-MHC binding, purified MHC/competitive/radioactivity; filed as Kd, often an IC50 or EC50 that approximates it; bounds were set here for any values at or beyond the usual limits of such assays; settings: source organism: Mammarenavirus guanaritoense
Numbers only here, please. The scale is µM.

>>> df
   residue_sequence  assay_system  assay_result
0         ADSLDFTQV   HLA-B*40:02          5.85

Next up:
Ask | Record request: Kd value, item RDLVISDSS
Reply | 2.49

---

molecular target: HLA-B*07:02; assay: IEDB peptide-MHC binding, purified MHC/direct/fluorescence; filed as Kd, often an IC50 or EC50 that approximates it; bounds were set here for any values at or beyond the usual limits of such assays; settings: source organism: Influenza A virus (A/duck/Mongolia/47/2001(H7N1))
pKd: −log10 of the molar value.
RECORDED ENDPOINT: pKd

Ask | For HLA-B*07:02, provide pKd of THFQRKRRV please.
Reply | ≤ 4.70
